FYI, the data here is from PubChem BioAssay (NCI).

Test system: HOP-62 NSCLC
ASSAY_SUMMARY: NCI-60 one-dose screen, 48 h
PARTICULARS: 10 µM unless noted
The panel holds about 83,000 compounds, 20% with a hit somewhere; the sample as a whole holds those more often. The source made the active and inactive calls. The calls were made as follows: active = growth percent below 10; inactive = the rest.
A correct response names exactly one class from t for active, f for inactive

Name the outcome recorded for C/C=C(/C)C(=O)O[C@@H]1CC(C)(C)CC2C34OC(=O)[C@@]21CC[C@@]3(C)[C@]1(C)CCC2C(C)(C)C(=O)CC[C@]2(C)C1C[C@@H]4Cl (stereo partly drawn) in the assay. f

What classification did "COc1ccc(/C(C)=C(\c2ccc(OCCN3CCCCCC3)cc2)c2ccc(OC(=O)C3CCCCC3)cc2)cc1" end up with in this test? t

// param item: "OCc1cc(CN2CCCCC2)c(O)c2ncccc12" ; yields the recorded call f

Per the assay record, what outcome was assigned to "Nc1n[nH]c2cccc(C#Cc3cccc(NC(=O)c4ccc(N5CCOCC5)c(C(F)(F)F)c4)c3)c12" ? f

Record request — test call for "CCOC(=O)N(O)c1ccc(/C=C/c2ccccc2)cc1" f

Tell me the recorded outcome of this test for "Clc1ccc(Nc2nc(Nc3ccc(Cl)cc3)nc(Nc3ccc(-c4cc(-c5cccc(Cl)c5)on4)cc3)n2)cc1" . f

Would you mind telling me which call this test gave "C[C@@H]1CC[C@@H]2[C@@H]1[C@H](OC(=O)/C=C/c1ccccc1)[C@]1(c3ccccc3)C[C@@H](NC(=O)CO)[C@@]2(C)O1" ? f

Recorded call for "C[C@]12CCc3c(ccc4cc(O)ccc34)[C@@H]1C[C@H](O)[C@@H]2O" ? f

What did this assay record as the result for CN1C(=O)N(C)C2(c3ccccc3)N(CC(=O)Nc3ccccc3O)C(=O)NC12c1ccccc1 (stereo not drawn) ? f

Called result for "C=C1C(=O)O[C@H]2[C@H]1CC/C(COC(=O)NCCCCNC(=O)OC/C1=C/CC[C@@]3(C)O[C@H]3[C@H]3OC(=O)C(=C)[C@@H]3CC1)=C\CC[C@@]1(C)O[C@@H]21" f

// outcome(item) with item = "O=C1/C(=C/c2ccc(-c3cccc(C(F)(F)F)c3)o2)SC(=S)N1CCc1ccc(O)cc1" f

Any idea what this test logged for "C=CCN1C=CC(=O)[C@H](O[Si](C)(C)C(C)(C)C)[C@@H]1/C=C/c1ccccc1" ? t

Any idea what this test logged for CC(Sc1ccccc1)C(=O)O (stereo not drawn) ? f

Called result for "Cc1oc2c(Cc3ccc(NC(=O)c4ccc(Cl)cc4)cc3)ncnc2c1C(=O)NO" f

Which result was noted for this compound in the test: "COc1cc(Nc2nc3ccccc3cc2C(=O)Nc2ccc(F)c(F)c2)cc(OC)c1OC" f

// param item: "COCCn1cc(-c2csc(-c3cn(C)c4ccc(F)cc34)n2)c2cccnc21" ; yields the recorded call f

Recorded test call requested for "CC(=NCc1ccccc1)c1ccc(O)cc1O" f

What did the test return for O=C1OCC2=C1C(c1cccc(C(F)(F)F)c1)c1cc3c(cc1N2CCO)OCCO3 (stereo not drawn) ? f

###

Test system: NCI/ADR-RES ovarian
ASSAY_SUMMARY: NCI-60 one-dose screen, 48 h (100 = growth as untreated, 0 = no growth, -100 = all killed)
PARTICULARS: 10 µM unless noted
The panel holds about 83,000 compounds, 20% with a hit somewhere; the sample as a whole holds those more often.
ASSAY_ENDPOINT: growth (%)
Field: numeric (%). Do not append units.

Give growth for the following compound: "NS(=O)(=O)c1ccc(C(=O)N=Nc2c(O)[nH]c3c(F)cccc23)cc1" 100

Give the measured growth for "O=c1c(/C=C/c2ccco2)nnc2sc(Nc3ccc(Cl)cc3)nn12" 102

Could you please provide reported growth for "COc1ccc(-c2nc(Cl)c3c(C)nn(-c4ccc(F)cc4)c3n2)cc1" ? Thanks! 112

Look up and report measured growth for this entry: "COc1cc(C=O)ccc1Oc1ccc([N+](=O)[O-])cc1[N+](=O)[O-]" 99.6

Specify growth for "Cc1ccc2nc3ccccc3c(NCc3ccc(Cl)cc3)c2c1" and stop. 42

Quickly give me recorded growth for "CCOC(=O)c1c(-c2ccc(OC)cc2)c(C#N)c2c(C#N)c(N)nn2c1N" 17.8

Answer with reported growth of "OCc1cc(CN2CCCCC2)c(O)c2ncccc12" 8.71

Tell me its growth given "Cc1c(CC(=O)OCCO)cc(-c2ccc(Cl)cc2)n1-c1ccccc1" as the entry. 99.5

Please look at this compound and report its growth: "COc1ccc(Nc2ncnc3ccc(-c4cncc(NS(C)(=O)=O)c4)cc23)cc1Cl" 86

Using known records, supply growth for "Cc1cc(N2CCN(CC(=O)Nc3ccc4c(ccn4Cc4ccccc4)c3)CC2)nc(N2CCCCCC2)n1" 39.6

Supply recorded growth for "O=C1c2cccc3cccc(c23)C(=O)N1N1C(=O)c2cccc3c(N4CCNCC4)ccc(c23)C1=O" here. 82.6

Kindly indicate its recorded growth. Item: "COc1ccccc1/C=C1\COc2ccc(O)c(O)c2C1=O" 3.53

Tell me measured growth for "N#Cc1ccccc1-c1ccc(Cn2c(-c3cscn3)nc3c(Cl)cccc32)cc1" please. 73.3
